System: U-251
assay comment: Cytotoxicity against human U251 cells by MTT assay
Assay type: functional, cell-based
pIC50: −log10 of the molar value.

query smiles: CC(C)=CCC/C(C)=C/Cc1c(O)c(CC=C(C)C)c2c(c1O)C(=O)C1=C[C@H]3C[C@H]4C(C)(C)O[C@](C/C=C(/C)C(=O)OCCCN5CCOCC5)(C3=O)[C@]14O2
pIC50: 5.48

query smiles: CC(C)=CCC/C(C)=C/Cc1c(O)c(CC=C(C)C)c2c(c1O)C(=O)C1=C[C@H]3C[C@H]4C(C)(C)O[C@](C/C=C(/C)C(=O)OCCCN5CCCCC5)(C3=O)[C@]14O2
pIC50: 5.05

query smiles: CC(C)=CCC/C(C)=C/Cc1c(O)c(CC=C(C)C)c2c(c1O)C(=O)C1=C[C@H]3C[C@H]4C(C)(C)O[C@](C/C=C(/C)C(=O)OCCCN5CCN(CCO)CC5)(C3=O)[C@]14O2
pIC50: 5.93

All values here come from ChEMBL document CHEMBL3734739.
